assay.overview: Cytotoxicity assay (MTT), HPC
condition.set: human, normal pulp cells (HPC)
measurement.kind: CC50 at 48 h

Some solved entries appear below for comparison.
- molecule: "NS(=O)(=O)c1ccc(N2N=C(c3ccc(O)cc3)CC2c2ccc(Cl)cc2)cc1 (stereo not shown)"
  CC50 at 48 h: "144 µM"
- molecule: "NS(=O)(=O)c1ccc(N2N=C(c3ccc(O)cc3)CC2c2ccc([N+](=O)[O-])cc2)cc1 (stereo not shown)"
  CC50 at 48 h: "127 µM"
- molecule: "O=c1[nH]cc(F)c(=O)[nH]1 [Compound 5-FU, 5-Fluorouracil, reference compound]"
  CC50 at 48 h: "> 1000 µM"
- molecule: "Cc1ccc(C2CC(c3ccc(O)cc3)=NN2c2ccc(S(N)(=O)=O)cc2)cc1 (stereo not shown)"
  CC50 at 48 h: "150 µM"

Reported CC50 at 48 h ( NS(=O)(=O)c1ccc(N2N=C(c3ccc(O)cc3)CC2c2ccc(F)cc2)cc1 (stereo not shown) ) = 155 µM

CC50 at 48 h recorded for this molecule, NS(=O)(=O)c1ccc(N2N=C(c3ccc(O)cc3)CC2c2ccc(Br)cc2)cc1 (stereo not shown) , is 149 µM

CC50 at 48 h reading for COc1ccc(C2CC(c3ccc(O)cc3)=NN2c2ccc(S(N)(=O)=O)cc2)cc1 (stereo not shown) : 167 µM

The recorded CC50 at 48 h for entry NS(=O)(=O)c1ccc(N2N=C(c3ccc(O)cc3)CC2c2cccs2)cc1 (stereo not shown) equals 173 µM

The molecule identified as NS(=O)(=O)c1ccc(N2N=C(c3ccc(O)cc3)CC2c2ccccc2)cc1 (stereo not shown) registered its CC50 at 48 h at 161 µM

Input NS(=O)(=O)c1ccc(N2N=C(c3ccc(O)cc3)CC2c2ccc(Cl)cc2Cl)cc1 (stereo not shown) . Output CC50 at 48 h: 131 µM
